test system: K-562 leukemia; assay: NCI-60 one-dose screen, 48 h (100 = growth as untreated, 0 = no growth, -100 = all killed); conditions: 10 µM unless noted
The panel holds about 83,000 compounds, 20% with a hit somewhere; the sample as a whole holds those more often.
PROPERTY: growth (%)
Supply the numeric figure in %, leaving out any unit text.

Some entries whose results are on file:
SMILES RECORD	PROPERTY	UNIT OF MEASUREMENT	REPORTED VALUE
CCNCCOc1ccc(/C(=C(/CC)c2ccc(Cl)cc2)c2ccc(OCCCN(C)C)cc2)cc1	growth	%	0.0244
CC1=C(C)C(=O)C(Nc2cccc(C(=O)OC(C)(C)C)c2)=CC1=O	growth	%	77.2
O=C(CCCCCCN1CC(=O)N2[C@@H](c3ccccc3Br)c3[nH]c4ccccc4c3C[C@H]2C1=O)NO	growth	%	22.6

Looking for the measured growth of COc1cc(OC)cc(-c2cc(-c3c[nH]c4ccccc34)nc(-c3c[nH]c4ccccc34)c2C#N)c1 , can you help?
93.2
